Molecular target: Ubiquitin-activating enzyme e1, putative (Leishmania donovani (strain BPK282A1))
Sequence (whole entry): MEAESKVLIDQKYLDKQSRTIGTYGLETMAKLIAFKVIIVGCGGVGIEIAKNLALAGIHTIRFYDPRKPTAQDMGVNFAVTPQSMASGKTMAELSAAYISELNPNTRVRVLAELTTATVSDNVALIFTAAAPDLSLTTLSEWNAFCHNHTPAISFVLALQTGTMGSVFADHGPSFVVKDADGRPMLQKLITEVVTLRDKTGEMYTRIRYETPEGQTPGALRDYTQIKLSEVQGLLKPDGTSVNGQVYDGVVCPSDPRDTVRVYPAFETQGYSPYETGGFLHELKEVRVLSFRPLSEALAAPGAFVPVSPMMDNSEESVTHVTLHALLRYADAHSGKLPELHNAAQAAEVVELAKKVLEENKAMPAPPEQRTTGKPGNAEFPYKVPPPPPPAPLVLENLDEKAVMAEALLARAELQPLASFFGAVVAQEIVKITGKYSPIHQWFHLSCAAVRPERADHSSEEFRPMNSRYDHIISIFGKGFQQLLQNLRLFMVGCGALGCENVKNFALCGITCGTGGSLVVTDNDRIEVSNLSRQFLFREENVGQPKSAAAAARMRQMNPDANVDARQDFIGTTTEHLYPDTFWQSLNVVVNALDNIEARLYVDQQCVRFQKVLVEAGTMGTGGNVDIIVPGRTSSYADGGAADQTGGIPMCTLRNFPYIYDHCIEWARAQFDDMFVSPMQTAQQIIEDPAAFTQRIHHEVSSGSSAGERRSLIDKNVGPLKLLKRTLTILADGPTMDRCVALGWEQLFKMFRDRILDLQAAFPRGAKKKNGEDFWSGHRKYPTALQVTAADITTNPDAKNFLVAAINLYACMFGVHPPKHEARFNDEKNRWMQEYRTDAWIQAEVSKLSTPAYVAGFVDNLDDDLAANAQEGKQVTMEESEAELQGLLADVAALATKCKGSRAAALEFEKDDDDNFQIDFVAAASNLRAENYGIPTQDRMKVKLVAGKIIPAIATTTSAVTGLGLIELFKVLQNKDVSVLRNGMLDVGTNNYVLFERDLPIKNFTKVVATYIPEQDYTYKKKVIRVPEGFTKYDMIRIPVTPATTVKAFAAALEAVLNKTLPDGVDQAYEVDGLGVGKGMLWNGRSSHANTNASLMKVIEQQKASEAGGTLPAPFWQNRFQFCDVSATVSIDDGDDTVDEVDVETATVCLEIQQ
Assay: Leishmania donovani Ubiquitin Activating Enzyme (LdE1)
Format: functional
Design: scale not given: direction of the effect not stated beside the values
Conditions: 30 µM
Entries with a potency or affinity are not part of this list.
Readings of Percent Effect for the listed molecules
quantity.measured: Percent Effect (%)

| molecule | measured |
| --- | --- |
| O=C(c1ccc(Cl)o1)N1CCCC(c2cc(C(F)(F)F)[nH]n2)C1 (configuration not stated) | 7.89 |
| Cn1cnnc1C1CCCN(C(=O)NCCc2ccccc2F)C1 (configuration not stated) | 10.4 |
| Cc1nc(O)c2nnn(C[C@H]3CCCN3C(=O)CCC3CCCC3)c2n1 | -4.05 |
| COCCN1CCc2cc(C(=O)N(C)C)c(NC(C)C)nc2CC1 | 8.11 |
| CC(C)c1nc2c(n1C)CCN(Cc1nc(-c3cccs3)no1)C2 | -5.41 |
| OC(CN1CCCCCCC1)c1ccc(F)cc1 (configuration not stated) | 10.5 |
| Cc1nc(Nc2ncccn2)cc(C2CCCN2C2CCOCC2)n1 (configuration not stated) | 6.76 |
| COc1nn(C)c2c1CCCN(C(=O)c1cc[nH]n1)C2 | -5.41 |
| Cc1cc(-c2cnn(CCNC(=O)c3cccnc3)c2C2CC2)on1 | 4.05 |
| Cc1cc(C[C@@H]2CCC[C@H]2NCc2ccccc2C(F)(F)F)on1 | 1.35 |
| O=C(NCCCNC(=O)c1cccc(O)c1)Nc1ccc(F)cc1F | 18.4 |
| CNS(=O)(=O)c1ccc(C(=O)NC2CCc3nc(C)cn3C2)o1 (configuration not stated) | 7.89 |
| O=C(CC1CCCC1)N1CCCC1c1nc(O)cc(-c2ccccn2)n1 (configuration not stated) | 20.3 |
| Cc1cccc(CNCc2c(C(C)C)nn(C)c2N2CCOCC2)n1 | 5.48 |
| CC[C@@H]1N(CC2CC2)CCC[C@]12CCC(=O)N2CCOC | 8 |
| OC(COCc1ccccc1Cl)CN1CC(n2cccn2)C1 (configuration not stated) | -15.8 |
| Cc1csc(CNC(=O)NCC(O)c2cccc(Cl)c2)n1 (configuration not stated) | 8.11 |
| CCOCC(O)CN1CCN(C(=O)c2ccc(OC)cc2F)CC1 (configuration not stated) | 18.2 |
| CNC(=O)[C@H]1C[C@H]2OCC[C@H]2N(Cc2cccc3ccccc23)C1 | 10.4 |
| CCC1(CO)CCCN(c2ncccc2C#N)C1 (configuration not stated) | -5.41 |
| Cc1ncsc1CN1C[C@@H]2COC[C@]2(COc2ccc(C#N)cn2)C1 | -5.48 |
| CCCNC(=O)c1cc2c(nc1O)CCC(C)C2 (configuration not stated) | 14.7 |
| O=C([C@H]1CCCO1)N1CCc2ncnc(NC3CC3)c2CC1 | 0 |
| CCc1nccn1C1CCCN(C(=O)CCc2nccs2)C1 (configuration not stated) | -5.41 |
| COc1cnc(C2(O)CCN(C(=O)c3ccncc3)CC2)c(OC)n1 | 4.05 |
| Cc1ccc(C(=O)N2C[C@@H]3COC[C@]3(COc3cccnc3)C2)cn1 | 18.9 |
| c1ncn(Cc2cnc3n2CCN(Cc2ccsc2)CC3)n1 | 5.33 |
| c1ccc(CN2CCCC(c3nccnc3-n3ccnc3)C2)cc1 (configuration not stated) | 10.7 |
| CN(CC1(O)CCCCC1)C1CCCN(Cc2noc(C3CC3)n2)C1 (configuration not stated) | 26.3 |
| O=C1[C@@H]2CCN(Cc3ccncc3)C[C@@H]2OCCN1c1ccccc1 | 8 |
| CC(COc1ccccc1)NCc1nc(-c2cccnc2)no1 (configuration not stated) | 6.94 |
| CCc1nc(CC(=O)N2CCn3c(nnc3C(C)C)C2)cs1 | 0 |
| Cc1nc(C(=O)N2CCCC(n3cncn3)C2)cs1 (configuration not stated) | -1.27 |
| CCCc1ncc(C(=O)N2CCOC(c3nc(C)n[nH]3)C2)s1 (configuration not stated) | -3.8 |
| Cc1cnc2n(c1=O)C(CC(=O)NCc1cc(-c3cccs3)on1)CS2 (configuration not stated) | 20.8 |
| COc1c(C2CCCN2Cc2cc(C)no2)c(C)nn1C (configuration not stated) | 8.11 |
| CS(=O)(=O)N1CCCN(C(=O)c2ccc(Cn3ccccc3=O)o2)CC1 | 10.8 |
| COc1ccc(CN(Cc2cncn2C)CC2CCCO2)c(OC)c1 (configuration not stated) | 17.6 |
| Cc1cc(C(=O)N2CC[C@H](OCC3CC3)[C@@H]2Cc2cccnc2)no1 | 0 |
| OC[C@H]1CC[C@]2(CC1)CN(Cc1ccccc1F)Cc1ccccc1O2 | 4.05 |
| O=C(Nc1cnn(CCN2CCOCC2)c1)c1ccccc1O | 26.3 |
| COc1ncccc1NC(=O)NCC(O)c1ccc(F)cc1F (configuration not stated) | -6.33 |
| N#Cc1ccc(C(=O)N2CCn3c(Cn4cccn4)cnc3C2)cc1 | 2.67 |
| N#CC1(C(=O)N2CCN(Cc3ccon3)CC2)CCC1 | 5.06 |
| O=C(c1ccnnc1)N1C[C@H](Oc2cccnc2)[C@H]2OCCC[C@H]21 | 0 |
| CN(CC1COc2ccccc2O1)C(=O)NCCCn1ccnc1 (configuration not stated) | 0 |
| Cc1nc(C2CCCN2CCCNS(C)(=O)=O)no1 (configuration not stated) | 15.8 |
